For each of the compounds below, state its pIC50.
Molecular target: PI3K β (p110β/p85α) (Homo sapiens)
Construct: purchased Upstate / Millipore Corporation
Sequence (P42338 whole entry, one chain of several): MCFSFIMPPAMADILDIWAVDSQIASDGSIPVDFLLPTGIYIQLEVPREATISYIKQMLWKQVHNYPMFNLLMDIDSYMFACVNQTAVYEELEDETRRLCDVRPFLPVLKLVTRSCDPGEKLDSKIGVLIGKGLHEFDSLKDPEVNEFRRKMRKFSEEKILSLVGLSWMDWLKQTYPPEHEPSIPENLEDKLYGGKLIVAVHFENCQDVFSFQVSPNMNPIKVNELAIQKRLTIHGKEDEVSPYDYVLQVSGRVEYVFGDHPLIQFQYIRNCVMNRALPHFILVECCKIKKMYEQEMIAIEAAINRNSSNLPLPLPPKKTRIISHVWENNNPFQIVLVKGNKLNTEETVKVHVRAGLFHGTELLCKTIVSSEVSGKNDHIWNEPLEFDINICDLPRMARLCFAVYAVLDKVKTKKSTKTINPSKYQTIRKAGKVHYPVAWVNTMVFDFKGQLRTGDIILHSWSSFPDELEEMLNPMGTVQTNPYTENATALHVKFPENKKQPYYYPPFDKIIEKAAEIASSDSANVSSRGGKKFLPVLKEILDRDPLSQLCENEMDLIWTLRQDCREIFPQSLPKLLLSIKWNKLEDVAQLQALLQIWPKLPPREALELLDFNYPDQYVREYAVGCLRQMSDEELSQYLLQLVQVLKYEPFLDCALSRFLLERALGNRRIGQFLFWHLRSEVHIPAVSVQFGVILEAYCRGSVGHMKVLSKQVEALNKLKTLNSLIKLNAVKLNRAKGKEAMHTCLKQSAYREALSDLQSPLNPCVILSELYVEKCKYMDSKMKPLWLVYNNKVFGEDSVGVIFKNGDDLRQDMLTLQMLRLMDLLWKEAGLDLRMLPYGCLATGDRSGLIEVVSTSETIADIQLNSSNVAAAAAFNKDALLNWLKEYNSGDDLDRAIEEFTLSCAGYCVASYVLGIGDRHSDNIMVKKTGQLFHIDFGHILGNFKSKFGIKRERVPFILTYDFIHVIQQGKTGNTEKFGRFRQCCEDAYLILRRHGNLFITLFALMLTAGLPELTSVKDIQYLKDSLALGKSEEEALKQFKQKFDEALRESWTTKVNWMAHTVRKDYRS
Experiment: PI 3-Kinase (human) HTRF assay, PI3K β
Type: biochemical
Settings: read-out: PI3K β IC50
pIC50: −log10 of the molar value.

Please give pIC50, item by item, for the list that follows.
1. Nc1nc2cc(-c3ccc4ncc(C(=O)N5CCCC5)n4c3)ccc2o1
2. Nc1nc2cc(-c3ccc4ncc(C(=O)N5CCOCC5)n4c3)cc(Cl)c2o1
3. Nc1nc2cc(-c3ccc4ncn(C5CCNCC5)c(=O)c4c3)ccc2o1
4. Nc1nc2cc(-c3ccc4ncc(N5CC(N6CCCC6)C5)nc4c3)ccc2o1
5. CNS(=O)(=O)c1cncc(-c2ccc3ncc(C(=O)N4CCOCC4)n3c2)c1
6. CN1CCN(CCn2cnc3ccc(-c4ccc5oc(N)nc5c4)cc3c2=O)CC1
7. O=C(c1cnc2ccc(-c3cnc(Cl)c(NS(=O)(=O)c4ccc(F)cc4)c3)cn12)N1CCOCC1

OUT:
> 5.00
> 6.00
> 5.00
> 5.00
< 5.00
< 5.00
> 7.00

Please give pIC50, item by item, for the list that follows.
1. Nc1nc2cc(-c3ccc4ncc(N5CCN(C(=O)C6(N)CCC6)CC5)nc4c3)ccc2o1
2. Nc1nc2cc(-c3ccc4ncc(C(=O)N5CCNCC5)n4c3)ccc2o1

OUT:
["> 6.00", "> 5.00"]

Please give pIC50, item by item, for the list that follows.
1. C[C@H]1CN(c2cnc3ccc(-c4cccc5nc(N)oc45)cc3n2)CCN1
2. Nc1nc2ccc(-c3ccc4nc(N)oc4c3)cc2o1
3. Nc1nc2cc(-c3ccc4ncc(N5CC(N6CCN(CC7CC7)CC6)C5)nc4c3)ccc2o1
4. Nc1nc2ccc(-c3cc(F)c4ncc(C(=O)N5CCOCC5)n4c3)cc2o1
5. COc1nc(-c2ccc3oc(N)nc3c2)cnc1N
6. CCN(CC)CCn1cnc2ccc(-c3ccc4oc(N)nc4c3)cc2c1=O
7. Nc1nsc2ccc(-c3ccc4nccc(-c5ccncc5)c4c3)cc12
8. Nc1ncc(-c2ccc3ncc(C(=O)N4CCOCC4)n3c2)cc1C(F)(F)F

OUT:
["< 5.00", "< 5.00", "> 5.00", "< 5.00", "> 6.00", "< 5.00", "< 5.00", "< 5.00"]

----------
Molecular target: PI3K δ (Homo sapiens, UniProt O00329)
Construct: purchased Upstate / Millipore Corporation
Sequence (O00329 whole entry): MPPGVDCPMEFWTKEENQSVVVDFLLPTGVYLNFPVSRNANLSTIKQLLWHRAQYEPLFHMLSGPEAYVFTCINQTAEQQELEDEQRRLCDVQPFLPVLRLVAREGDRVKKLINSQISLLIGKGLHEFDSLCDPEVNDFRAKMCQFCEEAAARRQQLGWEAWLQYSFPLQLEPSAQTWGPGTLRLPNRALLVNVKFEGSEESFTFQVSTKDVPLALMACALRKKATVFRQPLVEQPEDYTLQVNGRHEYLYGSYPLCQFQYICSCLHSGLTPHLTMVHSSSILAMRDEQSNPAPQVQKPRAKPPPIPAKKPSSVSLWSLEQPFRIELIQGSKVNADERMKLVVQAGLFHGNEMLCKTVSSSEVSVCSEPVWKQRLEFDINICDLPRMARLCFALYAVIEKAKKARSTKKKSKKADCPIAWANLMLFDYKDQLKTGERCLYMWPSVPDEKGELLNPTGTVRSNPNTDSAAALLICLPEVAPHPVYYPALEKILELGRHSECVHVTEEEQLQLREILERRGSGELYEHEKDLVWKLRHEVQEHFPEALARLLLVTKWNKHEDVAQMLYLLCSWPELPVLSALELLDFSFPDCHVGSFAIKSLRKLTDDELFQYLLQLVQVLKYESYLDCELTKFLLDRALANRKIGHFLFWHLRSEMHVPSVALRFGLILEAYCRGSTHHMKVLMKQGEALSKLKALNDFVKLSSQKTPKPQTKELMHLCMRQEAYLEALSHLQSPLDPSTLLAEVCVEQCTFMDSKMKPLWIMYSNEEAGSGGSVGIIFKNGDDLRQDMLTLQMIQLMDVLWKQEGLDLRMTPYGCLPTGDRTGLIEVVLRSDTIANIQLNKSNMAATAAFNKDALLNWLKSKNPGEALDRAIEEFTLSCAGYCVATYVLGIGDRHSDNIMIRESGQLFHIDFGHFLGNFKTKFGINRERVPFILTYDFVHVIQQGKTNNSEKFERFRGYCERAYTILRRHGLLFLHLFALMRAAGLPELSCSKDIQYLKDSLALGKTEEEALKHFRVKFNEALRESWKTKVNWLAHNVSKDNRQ
Sequence (P27986 whole entry partner): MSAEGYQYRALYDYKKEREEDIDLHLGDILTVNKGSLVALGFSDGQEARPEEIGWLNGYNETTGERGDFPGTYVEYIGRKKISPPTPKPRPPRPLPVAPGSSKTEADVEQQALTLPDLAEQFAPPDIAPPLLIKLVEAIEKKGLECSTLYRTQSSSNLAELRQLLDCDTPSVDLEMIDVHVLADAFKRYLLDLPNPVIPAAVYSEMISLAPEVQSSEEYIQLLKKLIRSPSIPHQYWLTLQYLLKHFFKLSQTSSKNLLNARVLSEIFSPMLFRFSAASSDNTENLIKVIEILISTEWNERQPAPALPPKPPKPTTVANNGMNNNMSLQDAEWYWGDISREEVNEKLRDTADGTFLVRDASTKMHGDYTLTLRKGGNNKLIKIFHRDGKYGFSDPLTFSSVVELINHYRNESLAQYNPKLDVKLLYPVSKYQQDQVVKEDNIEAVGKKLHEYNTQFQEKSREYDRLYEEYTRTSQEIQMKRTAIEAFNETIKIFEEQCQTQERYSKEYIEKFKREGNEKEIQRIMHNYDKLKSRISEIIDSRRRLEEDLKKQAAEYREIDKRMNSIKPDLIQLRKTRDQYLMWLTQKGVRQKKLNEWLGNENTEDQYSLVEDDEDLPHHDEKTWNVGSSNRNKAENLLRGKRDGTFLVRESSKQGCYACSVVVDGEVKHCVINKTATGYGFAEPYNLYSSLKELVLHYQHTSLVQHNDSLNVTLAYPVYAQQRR
Assay: PI 3-Kinase (human) HTRF assay, PI3K δ
Assay type: biochemical
Conditions: read-out: PI3K δ IC50
pIC50: −log10 of the molar value.
For each of the compounds below, state its pIC50.

These recorded examples may help you get a feel for the data.
- Cc1cc2oc(N)nc2cc1-c1ccc2ncc(N3CC(N4CCOCC4)C3)nc2c1: < 5.00
- O=C(c1cnc2ccc(-c3cccc(S(=O)(=O)Nc4cc(F)ccc4F)c3)cn12)N1CCOCC1: < 5.00
- CN1CCN(C(=O)c2cnc3cnc(-c4ccc5oc(N)nc5c4)cn23)CC1: < 5.00
- CNc1nsc2cc(-c3ccc4ncc(C(=O)N5CCOCC5)n4c3)ccc12: < 5.00
- Nc1nc2cc(-c3ccc4ncc(N5CCNC(C(F)F)C5)nc4c3)ccc2o1 (centres unmarked): > 5.00

Please give pIC50, item by item, for the list that follows.
1. CN1CCN(c2cnc3ccc(-c4ccc5oc(N)nc5c4)cc3n2)CC1=O
2. CN1CCN(C(=O)C2CN(c3cnc4ccc(-c5ccc6oc(N)nc6c5)cc4n3)C2)CC1 [Compound 170]
3. O=C(c1cnc2ccc(-c3cnc4[nH]ncc4c3)cn12)N1CCOCC1
4. C[C@@H](N)C(=O)N1CCN(c2cnc3ccc(-c4ccc5oc(N)nc5c4)cc3n2)CC1
5. CN1CCN(n2cnc3ccc(-c4ccc5oc(N)nc5c4)cc3c2=O)CC1 [Compound 446]
6. CCN(CC)C1CN(c2cnc3ccc(-c4ccc5oc(N)nc5c4)cc3n2)C1
7. CC(=O)N1CCC(Nc2cnc3ccc(-c4ccc5oc(N)nc5c4)cc3n2)CC1
8. Nc1nc2cccc(-c3ccc4nccc(-c5ccncc5)c4c3)c2o1

OUT:
> 5.00
> 6.00
> 5.00
> 6.00
< 5.00
> 5.00
> 7.00
> 6.00

Please give pIC50, item by item, for the list that follows.
1. O=C(c1cnc2ccc(-c3ccnc4[nH]ncc34)cn12)N1CCOCC1
2. CS(=O)(=O)CCN1CCC(NC(=O)c2cnc3ccc(-c4ccc5oc(N)nc5c4)cn23)CC1
3. Nc1nc2cc(-c3ccc4ncc(C(=O)N5C6CCC5COC6)n4c3)ccc2o1
4. Nc1nc2cc(-c3ccc4ncc(-c5ccnc(N6CCOCC6)c5)nc4c3)ccc2o1

OUT:
1. < 5.00
2. > 7.00
3. > 5.00
4. < 5.00
